Target: T1, orthogonal hCD122 receptor (hoRb), hCD122 with H133D and Y134F (human, UniProt P14784 27-550); further: reference of the scale not given here
T1 sequence: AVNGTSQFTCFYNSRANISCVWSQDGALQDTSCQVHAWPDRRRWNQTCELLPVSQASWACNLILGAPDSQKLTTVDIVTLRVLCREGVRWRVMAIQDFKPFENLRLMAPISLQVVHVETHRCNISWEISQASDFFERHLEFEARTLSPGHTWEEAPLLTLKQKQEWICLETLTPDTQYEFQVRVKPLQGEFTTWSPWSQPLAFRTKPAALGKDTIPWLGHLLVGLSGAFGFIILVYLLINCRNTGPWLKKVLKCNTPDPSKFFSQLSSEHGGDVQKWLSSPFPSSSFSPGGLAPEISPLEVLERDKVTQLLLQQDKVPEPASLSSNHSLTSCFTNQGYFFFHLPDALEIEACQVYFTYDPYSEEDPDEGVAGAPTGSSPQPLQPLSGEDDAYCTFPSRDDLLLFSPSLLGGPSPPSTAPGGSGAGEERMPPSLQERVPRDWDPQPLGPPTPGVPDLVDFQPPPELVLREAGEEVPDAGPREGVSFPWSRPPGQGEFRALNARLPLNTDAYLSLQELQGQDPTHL
Test: cell-based or functional assay
measurementName: Relative Proliferation Fold Change 3F8 1:50 (fold)

[
  {
    "binder": "SQVLKV (ligand) APTSSSTKKTQLQLSQLLVLLKVILNGINNYKNPKLTRMLTFKFYMPKKATELKHLQCLEEELKPLEEVLNLAQSKNFHLRPRDLISNINVIVLELKGSETTFMCEYADETATIVEFLNRWITFCQSIISTLT",
    "endpointValue": 20.8
  },
  {
    "binder": "ΔT51, SQVLKA (ligand) APTSSSTKKTQLQLSQLLVLLKAILNGINNYKNPKLTRMLTFKFYMPKKAELKHLQCLEEELKPLEEVLNLAQSKNFHLRPRDLISNINVIVLELKGSETTFMCEYADETATIVEFLNRWITFCQSIISTLT",
    "endpointValue": 2.17
  },
  {
    "binder": "ΔG27, SQVLKA (ligand) APTSSSTKKTQLQLSQLLVLLKAILNINNYKNPKLTRMLTFKFYMPKKATELKHLQCLEEELKPLEEVLNLAQSKNFHLRPRDLISNINVIVLELKGSETTFMCEYADETATIVEFLNRWITFCQSIISTLT",
    "endpointValue": 10.2
  }
]
